# MEASUREMENT_PROTOCOL: Uptake and apical-to-basolateral transport by Caco-2 TC7 cell monolayers of diluted aqueous fractions from in vitro digestions
# Type: in vitro ADME, human
# CONDITION_DETAILS: human, Caco-2, 6 h; from alperujo; mean ± SD (n = 4); read-out: Bioavailability in Caco-2 cells (recovery on the basolateral side) as percentage of initial apical amount
ENDPOINT_LABEL: recovery at 6 h (%)
// units = %; emit number, no label

Report recovery at 6 h for O=C(O)/C=C/c1ccc(O)cc1 [p-Cm, p-coumaric acid] 40.2

====

Provide the reported recovery of each item.
# MEASUREMENT_PROTOCOL: In vitro digestion model: bioaccessibility of alperujo phenolic compounds added to a test meal (percentage found in the aqueous phase of the digesta)
# Assay type: in vitro ADME
# CONDITION_DETAILS: pig, pH 6, in vitro digestion with test meal; average of alperujo and alperujo-CD; mean ± SD; read-out: Bioaccessibility (recovery in the final aqueous phase at the duodenal step)

Report recovery for O=C(O)/C=C/c1ccc(O)c(O)c1 [CA, caffeic acid] ~64.9%

Report recovery for OCCc1ccc(O)cc1 [Tyr, tyrosol] 83.7%

Report recovery for O=C(O)/C=C/c1ccc(O)cc1 [p-Cm, p-coumaric acid] > 87.9%

====

Provide the reported recovery of each item.
# MEASUREMENT_PROTOCOL: In vitro digestion model: bioaccessibility of alperujo phenolic compounds added to a test meal (percentage found in the aqueous phase of the digesta)
# Assay type: in vitro ADME
# CONDITION_DETAILS: pig, pH 6, in vitro digestion; relative to the initial quantity; read-out: Recovery in the digesta

Report recovery for O=C(O)/C=C/c1ccc(O)cc1 [p-Cm, p-coumaric acid] ≥ 100%

Report recovery for OCCc1ccc(O)cc1 [Tyr, tyrosol] ≥ 100%

====

Provide the reported recovery at 6 h of each item.
# MEASUREMENT_PROTOCOL: Uptake and apical-to-basolateral transport by Caco-2 TC7 cell monolayers of diluted aqueous fractions from in vitro digestions
# Type: in vitro ADME, human
# CONDITION_DETAILS: human, Caco-2, 6 h; from alperujo-CD; mean ± SD (n = 4); read-out: Bioavailability in Caco-2 cells (recovery on the basolateral side) as percentage of initial apical amount
// units = %; emit number, no label

Report recovery at 6 h for OCCc1ccc(O)cc1 [Tyr, tyrosol] 25.2

Report recovery at 6 h for O=C(O)/C=C/c1ccc(O)cc1 [p-Cm, p-coumaric acid] 48.7
